target: Neuronal acetylcholine receptor subunit alpha-7 (Rattus norvegicus, UniProt Q05941); assay: Displacement of [125I]alpha-Bungarotoxin from alpha7 nAchR in rat brain cell membrane
Sequence (Q05941 whole entry): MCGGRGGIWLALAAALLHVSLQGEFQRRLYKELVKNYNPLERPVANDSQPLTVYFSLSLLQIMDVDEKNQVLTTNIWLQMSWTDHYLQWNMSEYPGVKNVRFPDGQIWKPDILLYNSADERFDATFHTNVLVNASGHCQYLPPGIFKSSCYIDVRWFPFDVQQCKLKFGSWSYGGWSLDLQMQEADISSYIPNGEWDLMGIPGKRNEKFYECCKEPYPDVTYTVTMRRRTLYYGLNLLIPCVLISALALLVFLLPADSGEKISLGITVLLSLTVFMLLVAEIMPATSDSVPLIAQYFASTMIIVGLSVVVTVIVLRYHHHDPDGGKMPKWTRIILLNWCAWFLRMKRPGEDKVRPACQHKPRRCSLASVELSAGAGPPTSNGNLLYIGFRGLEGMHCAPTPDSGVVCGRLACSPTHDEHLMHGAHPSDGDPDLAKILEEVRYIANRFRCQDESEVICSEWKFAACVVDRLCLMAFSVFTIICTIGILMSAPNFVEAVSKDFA
result.type: pKi
Please report pKi as the negative decimal logarithm of the molar concentration, giving only the number.

Please review the following examples before continuing.
molecule.smiles: O=c1cccc2n1C[C@@H]1C[C@@H]2CN(Br)C1
pKi: 6.95

molecule.smiles: O=c1cccc2n1C[C@@H]1CNC[C@H]2C1
pKi: 6.00

molecule.smiles: O=c1c(C(F)(F)F)ccc2n1C[C@@H]1CNC[C@H]2C1
pKi: 6.00

molecule.smiles: Cc1ccc2n(c1=O)C[C@@H]1CNC[C@H]2C1
pKi: 5.70

molecule.smiles: O=c1cccc2n1C[C@@H]1C[C@@H]2CN(I)C1
pKi: 5.70

Here is the next item to consider.
Field request: pKi | item: O=c1c(Br)ccc2n1C[C@@H]1CNC[C@H]2C1
6.40
